Assay: Population PK analysis of plasma and urine data, study ACH443-011, 1×20 mg tablet PO
Conditions: human, in vivo
measured quantity: fraction unbound

> print(dat)
                                   compound  measured.quantity  recorded.measurement
1  Nc1nc(=O)n([C@H]2C=C[C@@H](CO)O2)cc1F [Elvucitabine]   fraction unbound                 0.396

---

Assay: Therapeutic window from PK versus PD relationship
Conditions: human
measured quantity: Cmax

> print(dat)
                                     mol  measured.quantity  recorded.measurement
1  Nc1nc(=O)n([C@H]2C=C[C@@H](CO)O2)cc1F               Cmax            > 40 ng/mL
